testProtocol: Human HepG2 cell viability assay in 384 well format
Type: toxicity, cell-based
Design: dose 125 nL, time 70.5 hour; concentration not given beside the values
conditionLabel: HepG2 cells, read-out: Inhibition
Can you tell me cytotoxicity at 70.5 h for the items I'm about to list?
One number for each entry, in %.

See these solved cases before continuing.
{"columns": ["compound", "cytotoxicity at 70.5 h, %"],
 "data": [
  ["CNc1cc(C(=O)N(C)Cc2cc(-c3cccs3)n[nH]2)ccn1", 0.513],
  ["NC(=O)C1CCN(C(=O)CCn2ccc3ccc(Br)cc32)CC1", -33.3],
  ["Cc1c(CS(C)(=O)=O)cccc1NC(=O)CC1CCCC1", -7.53],
  ["Cc1cccc(C(=O)Nc2cccc3c2C(=O)NC3)n1", -5.67],
  ["FC(F)CN1CCOC(Cn2cccn2)C1 (configuration not stated)", -3.37]
]}

Please state, for each entry, its recorded cytotoxicity at 70.5 h.
1. CCc1cnc(NCC(C)Oc2cccnc2)nc1 (configuration not stated)
2. O[C@@H]1CN(Cc2cccnc2)C[C@H]1Oc1ccccc1
3. CCN(CC)Cc1cc(C(=O)N2CC(C)(C)[C@@](C)(O)C2)c(C)o1
4. CCN(CC)C(=O)CCn1ncc2c(Cl)cccc21

[-5.39, 0.823, 8.35, -10.4]
